Tested on: ROCK1
CONDITION SUMMARY: concentration: 1 μM, replicates: in singlicate; n = 1;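 also: KINOMEscan kinase panel screen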
Label scheme for %Inh: lower than 10% is No, 10% and above is Yes.

# COMPOUND, CATEGORY
rows = [
    ("CCC(=O)c1c(-c2ccccc2)c2cc(Cl)ccc2c(=O)n1Cc1cc(C(=O)NC2CC2)n(C)n1", "Yes"),
    ("CCCNC(=O)Nc1ccc(Oc2ncnc3ccn(C)c23)cc1", "No"),
    ("Cc1c(Cn2c(C)nn3c(=O)cc(N4CCO[C@H](C)C4)nc23)cccc1C(F)(F)F [GSK2373690]", "No"),
    ("COc1cccc(C2=C(Nc3cccc(C(=O)O)c3)C(=O)NC2=O)c1 [SB-390770]", "Yes"),
    ("CCS(=O)(=O)c1ccc(OC)c(Nc2ncc(-c3ccc(F)cc3)o2)c1.Cl [GW591947]", "Yes"),
    ("O=C1NC(=O)C(c2ccccc2)=C1Nc1cccc(O)c1 [SB-390534]", "No"),
    ("Nc1ncnc2c1ncn2-c1cccc2ccccc12 [SKF-97184]", "Yes"),
    ("COc1cc(OC)cc(-c2cc3cnc(N)nc3nc2NC(=O)NC(C)(C)C)c1", "No"),
    ("Nc1n[nH]c2ncc(-c3ccccc3)cc12 [SB-517081]", "Yes"),
]

====

System: MEK6
Construct: gene MAP2K6
CONDITION SUMMARY: concentration: 1 μM, replicates: in singlicate; n = 1
QUANTITY MEASURED: %Inh

# GIVEN SMILES, REPORTED RESULT
data = [
    ("Cc1cc(Nc2nc(-c3cccc(C)n3)nc3ccccc23)ccn1", "0%"),
    ("Cc1nnc(-c2ccc(C)c(-c3ccc(C(=O)O)cc3)c2)o1", "0%"),
    ("Nc1ncnc2c1ncn2-c1ccc(Cl)cc1", "0%"),
    ("CCc1ccc(-c2ccc3c(c2)-c2nn(C)cc2S(=O)(=O)N3C)cc1", "0%"),
    ("OCCCNc1nccc(-c2c(-c3cccc(C(F)(F)F)c3)nn3cc(C(F)(F)F)ccc23)n1", "0%"),
    ("Nc1nc(N)c2nc(-c3ccccc3)[nH]c2n1", "0%"),
    ("COc1cc2nccc(Nc3ccc(OCc4ccc(NC(C)=O)cc4)cc3)c2cc1OC.Cl", "0%"),
    ("Nc1ncnc2c1ncn2-c1cccc2ccccc12", "22%"),
    ("COc1cccc(-n2cnc3c(N)ncnc32)c1", "18%"),
    ("Cc1cccc(-c2nc(Nc3ccc4c(cnn4C)c3)c3ccccc3n2)n1", "5%"),
]

====

Test system: CHEK2
CONDITION SUMMARY: concentration: 1 μM, replicates: in singlicate; n = 1
Each record here notes measured %Inh.

# GIVEN SMILES, %Inh, %
records = [
    ("Nc1ncnc2c1ncn2-c1cccc2ccccc12", 17),
    ("O=C(Nc1ccc2c(c1)OCO2)NC1CCN(c2ccnc(NCc3ccc(F)cc3)n2)CC1", 0),
    ("COc1ccc(-c2coc3ccc(-c4nnc(SCc5cccc(C#N)c5)o4)cc23)cc1", 0),
    ("C[C@@H]1CC[C@H](C(=O)NC2CCCCC2)CN1c1cc(-c2ccc3c(N)n[nH]c3c2)nc(N)n1", 22),
    ("COC(=O)c1c(-c2ccccc2)c2cc(C)ccc2c(=O)n1Cc1ccccc1", 0),
    ("COc1cccc(C2=C(Nc3cccc(C(=O)O)c3)C(=O)NC2=O)c1", 0),
    ("COc1cc2nccc(Nc3cccc(Oc4ccccc4)c3)c2cc1OC.Cl", 0),
    ("COc1cc2nccc(Nc3ccc(OCc4ccc(NC(C)=O)cc4)cc3)c2cc1OC.Cl", 0),
    ("Cc1nn2c(=O)cc(N3CCOCC3)nc2n1Cc1cccc(Cl)c1Cl", 0),
]

====

System: DLK
Construct: gene MAP3K12
CONDITION SUMMARY: concentration: 1 μM, replicates: in singlicate; n = 1
Each record here notes measured %Inh.

# COMPOUND, STUDY TARGET, %Inh [%]
data = [
    ("Cc1cccc(-c2nc(Nc3ccc4c(cnn4C)c3)c3ccccc3n2)n1 [GW876731]", "DLK", 0),
    ("OCCCNc1nccc(-c2c(-c3cccc(C(F)(F)F)c3)nn3cc(C(F)(F)F)ccc23)n1 [GW630813]", "DLK", 37),
    ("O=C(Nc1n[nH]c2cc(-c3ccccc3F)ccc12)C1CC1 [SB-733371]", "DLK", 0),
    ("Cc1c(Cn2c(C)nn3c(=O)cc(N4CCO[C@H](C)C4)nc23)cccc1C(F)(F)F [GSK2373690]", "DLK", 0),
    ("C[C@@H]1CC[C@H](C(=O)NC2CCCCC2)CN1c1cc(-c2ccc3c(N)n[nH]c3c2)nc(N)n1 [GSK2291363]", "DLK", 31),
    ("COc1cccc(C2=C(Nc3cccc(C(=O)O)c3)C(=O)NC2=O)c1 [SB-390770]", "DLK", 0),
    ("COC(=O)c1c(-c2ccccc2)c2cc(Br)ccc2c(=O)n1Cc1ccc(S(C)(=O)=O)cc1", "DLK", 0),
    ("CC(C)(C)c1ccc(C(=O)Nc2cn3cc(-c4ccccc4)ccc3n2)cc1", "DLK", 0),
]

====

System: ACVR1B
CONDITION SUMMARY: concentration: 1 μM, replicates: in singlicate; n = 1
Each record here notes measured %Inh.

# MOLECULE, %Inh (%)
rows = [
    ("COc1cc(Nc2ccnc3ccc(C(F)(F)F)cc23)cc(OC)c1OC [GW577382]", 0),
    ("O=C(Nc1n[nH]c2cc(-c3ccccc3F)ccc12)C1CC1 [SB-733371]", 1),
    ("COC(=O)c1c(-c2ccccc2)c2cc(C)ccc2c(=O)n1Cc1ccccc1", 0),
    ("CCS(=O)(=O)c1ccc(OC)c(Nc2ncc(-c3ccc(F)cc3)o2)c1.Cl [GW591947]", 0),
    ("COc1ccc(-c2cc3c(C)nc(N)nc3n([C@H]3CC[C@H](OCCO)CC3)c2=O)cn1", 9),
]

====

Each record here notes measured %Inh.
Test system: AURKC
CONDITION SUMMARY: concentration: 1 μM, replicates: in singlicate; n = 1

# COMPOUND, STUDY TARGET, UNIT INFO, %Inh
measured = [
    ("COc1cc(Nc2nccc(N3CCC(NC(=O)C4COc5ccccc5O4)C3)n2)cc(OC)c1OC (stereo not drawn)", "AURKC", "%", 75),
    ("CN1C(=O)C(Nc2cc(Cl)c(O)c(Cl)c2)=C(c2ccc(Cl)cc2)C1=O", "AURKC", "%", 0),
    ("COc1ccc(-c2cc3c(C)nc(N)nc3n([C@H]3CC[C@H](OCCO)CC3)c2=O)cn1", "AURKC", "%", 7),
]

====

Each record here notes measured %Inh.
Test system: NEK7
CONDITION SUMMARY: concentration: 1 μM, replicates: in singlicate; n = 1

# COMPOUND, %Inh (%)
measured = [
    ("COc1cccc(C2=C(Nc3cccc(C(=O)O)c3)C(=O)NC2=O)c1", 0),
    ("COc1cc2ncn(-c3cc(OCc4ccncc4)c(C(N)=O)s3)c2cc1OC", 0),
    ("Fc1cccc(CSc2nnc(-c3ccc4c(c3)CCO4)o2)c1", 13),
    ("CCC(=O)c1c(-c2ccccc2)c2cc(Cl)ccc2c(=O)n1Cc1cc(S(C)(=O)=O)n(CCC(C)(C)O)n1", 1),
    ("COc1cc2ncn(-c3cc(OCc4ccncc4Br)c(C(N)=O)s3)c2cc1OC", 0),
    ("CCc1ccc(-c2ccc3c(c2)-c2nn(C)cc2S(=O)(=O)N3C)cc1", 0),
    ("O=C(NCCNc1ccnc(Nc2ccc(F)cc2)n1)Nc1ccc2c(c1)OCO2", 0),
    ("COc1cc2ncn(-c3cc(OCc4ccc(S(C)(=O)=O)cc4)c(C(N)=O)s3)c2cc1OC", 0),
    ("C[C@@H]1CC[C@H](C(=O)NC2CCCCC2)CN1c1cc(-c2ccc3c(N)n[nH]c3c2)nc(N)n1", 0),
    ("CN1C(=O)C(Nc2ccccc2)=C(c2ccccc2)C1=O", 0),
    ("COc1ccc(CNC(=O)NC2CCN(c3ccnc(Nc4ccc(F)cc4)n3)C2)cc1 (stereo not shown)", 0),
    ("O=c1cc(N2CCOCC2)nc2n(Cc3ccc(F)c(Cl)c3)ccn12", 61),
    ("COc1ccc(-c2coc3ccc(-c4nnc(SCc5cccc(C#N)c5)o4)cc23)cc1", 0),
    ("COc1cc2ncn(-c3cc(OCCCc4ccccc4)c(C(N)=O)s3)c2cc1OC", 0),
    ("Cn1c(=O)c(F)c(Nc2ccc(I)cc2F)c2c(=O)n(OC[C@H](O)CO)cnc21", 0),
    ("Cc1ccc(-c2ccc3c(ccc4sc5c(c43)NC[C@@H](C)N=C5N(C)C)n2)cn1", 0),
    ("Cc1cccc(-c2cc(-c3c[nH]nc3-c3ccccn3)ccn2)c1", 0),
    ("CCc1nc(-c2cccc(C)c2)c(-c2ccncc2)s1", 0),
    ("Nc1nc(N)c2nc(-c3ccccc3)[nH]c2n1", 9),
]
